Biological target: recombinant BACE2 protein (Homo sapiens)
Sequence (Q9Y5Z0 63-518): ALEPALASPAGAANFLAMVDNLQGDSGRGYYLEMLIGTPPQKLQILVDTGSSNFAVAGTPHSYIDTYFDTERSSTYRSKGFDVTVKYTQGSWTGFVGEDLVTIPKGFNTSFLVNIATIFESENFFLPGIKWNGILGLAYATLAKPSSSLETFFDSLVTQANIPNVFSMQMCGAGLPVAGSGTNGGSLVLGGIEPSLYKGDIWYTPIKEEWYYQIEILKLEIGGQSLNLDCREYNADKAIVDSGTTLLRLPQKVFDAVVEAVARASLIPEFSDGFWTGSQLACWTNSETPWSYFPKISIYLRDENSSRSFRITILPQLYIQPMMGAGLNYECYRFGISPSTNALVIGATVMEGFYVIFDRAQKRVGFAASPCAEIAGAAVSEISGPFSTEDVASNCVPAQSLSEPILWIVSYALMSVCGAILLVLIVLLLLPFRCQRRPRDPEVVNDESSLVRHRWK
Assay: BACE2 biochemical FRET based assay
Conditions: 450 min at room temperature, 10 μM substrate, pH 5.0
Source text: This assay is a Fluorescence Resonance Energy Transfer Assay (FRET) based assay. The substrate for this assay contains the ‘Swedish’ Lys-Met/Asn-Leu mutation of the amyloid precursor protein (APP) beta-secretase cleavage site. […] Upon cleavage by the beta-secretase, the fluorophore Mca is separated from the quenching group Dnp, restoring the full fluorescence yield of the donor. The increase in fluorescence is linearly related to the rate of proteolysis. […]
Kindly state Biochemical FRET based assay pIC50 for each of the entries shown.
Numbers only.

Some entries whose results are on file:
{"columns": ["cpdSmiles", "testedOn", "Biochemical FRET based assay pIC50"],
 "data": [
  ["COc1ccc(Cc2cnc(OC)c3c2C[C@H]2CSC(N)=N[C@@]2(c2ccc(F)cc2F)C3)cc1", "recombinant BACE2 protein (Homo sapiens)", 7.1],
  ["COc1ncc(Cc2c(C)noc2C)c2c1C[C@]1(c3ccc(F)cc3F)N=C(N)SC[C@@H]1C2", "recombinant BACE2 protein (Homo sapiens)", 7.36],
  ["COc1ncc(CC2CCOCC2)c2c1C[C@]1(c3ccc(F)cc3F)N=C(N)SC[C@@H]1C2", "recombinant BACE2 protein (Homo sapiens)", 8.18]
]}

// next item, Biochemical FRET based assay pIC50 requested
Please list Biochemical FRET based assay pIC50 recorded for the compound COc1ncc(Cc2c(C)cccc2C)c2c1C[C@]1(c3ccc(F)cc3F)N=C(N)SC[C@@H]1C2
6.56

###

Kindly state Biochemical FRET based assay pIC50 for each of the entries shown.
Target: recombinant BACE1 protein (Homo sapiens, UniProt P56817)
Sequence (P56817 46-501): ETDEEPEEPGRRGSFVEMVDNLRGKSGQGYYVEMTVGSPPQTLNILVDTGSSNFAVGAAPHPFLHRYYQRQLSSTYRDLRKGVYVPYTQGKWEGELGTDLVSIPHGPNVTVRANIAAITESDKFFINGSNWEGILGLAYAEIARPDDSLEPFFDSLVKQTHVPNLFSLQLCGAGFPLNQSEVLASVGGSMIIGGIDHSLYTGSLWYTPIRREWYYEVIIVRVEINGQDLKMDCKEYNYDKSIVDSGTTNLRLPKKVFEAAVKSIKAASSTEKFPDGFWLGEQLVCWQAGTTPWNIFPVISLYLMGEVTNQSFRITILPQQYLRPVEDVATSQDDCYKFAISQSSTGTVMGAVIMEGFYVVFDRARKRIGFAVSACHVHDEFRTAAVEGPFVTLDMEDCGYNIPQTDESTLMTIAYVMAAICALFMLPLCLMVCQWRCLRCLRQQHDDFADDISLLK
Test: BACE1 biochemical FRET based assay
Settings: 450 min at room temperature, 20 μM substrate, pH 5.0
Source text: This assay is a Fluorescence Resonance Energy Transfer Assay (FRET) based assay. The substrate for this assay is an APP derived 13 amino acids peptide that contains the ‘Swedish’ Lys-Met/Asn-Leu mutation of the amyloid precursor protein (APP) beta-secretase cleavage site. […] Upon cleavage by BACE1, the fluorophore Mca is separated from the quenching group Dnp, restoring the full fluorescence yield of the donor. The increase in fluorescence is linearly related to the rate of proteolysis. […]
Numbers only.

{"columns": ["cpdSmiles", "testedOn", "Biochemical FRET based assay pIC50"],
 "data": [
  ["COc1ncc(Cc2c(C)cccc2C)c2c1C[C@]1(c3ccc(F)cc3F)N=C(N)SC[C@@H]1C2", "recombinant BACE1 protein (Homo sapiens, UniProt P56817)", 7.99],
  ["COc1ccc(Cc2cnc(OC)c3c2C[C@H]2CSC(N)=N[C@@]2(c2ccc(F)cc2F)C3)cc1", "recombinant BACE1 protein (Homo sapiens, UniProt P56817)", 7.64],
  ["COc1ncc(Cc2c(C)noc2C)c2c1C[C@]1(c3ccc(F)cc3F)N=C(N)SC[C@@H]1C2", "recombinant BACE1 protein (Homo sapiens, UniProt P56817)", 8.23]
]}

// next item, Biochemical FRET based assay pIC50 requested
Please list Biochemical FRET based assay pIC50 recorded for the compound COc1ncc(CC2CCOCC2)c2c1C[C@]1(c3ccc(F)cc3F)N=C(N)SC[C@@H]1C2
8.52

Data origin, for the record: patent US20210284659A1
